Assay: ATG_PBREM_CIS: Attagene CIS-FACTORIAL HepG2 Assay for human Phenobarbital-responsive Enhancer Module (PBREM) (AID 2282955)
Details: HepG2 PBREM cis-reporter, Attagene multiplexed transcription; actives raise or lower the signal
Active and inactive are the calls of the source. Rule for the calls: active = hit-call score of the fitted dose curve at least 0.9, where 1 is the maximum; inactive = score below 0.9.
Possible outcomes: 1.0 (active), 0.0 (inactive)

[[record]]
compound = "CCNc1nc(N)nc(Cl)n1"
class = 0.0

[[record]]
compound = "COC(=O)c1ccccc1C(=O)O"
class = 0.0

[[record]]
compound = "CCOC(=O)[C@H](C)Oc1ccc(Oc2nc3ccc(Cl)cc3o2)cc1"
class = 0.0

[[record]]
compound = "CCCCOCCOCCOCc1cc2c(cc1CCC)OCO2"
class = 1.0

[[record]]
compound = "CCOC(=O)C(C)Oc1ccc(Oc2nc3ccc(Cl)cc3o2)cc1 (stereo unspecified)"
class = 0.0

[[record]]
compound = "CCCCOC(=O)[C@@H](C)Oc1ccc(Oc2ccc(C(F)(F)F)cn2)cc1"
class = 0.0

